Each record here notes measured drug sensitivity score.
Test system: SK-BR-3
Assay name: drug sensitivity score (DSS), CellTiter-Glo (DSS (AUC-based score)); higher = stronger drug effect (viability inhibition or cytotoxicity); extreme values may be limits of the assay
Condition notes: incubation time: 72 h
Result type: drug sensitivity score

> print(dat)
                                   compound             result.type  data.value
1  CN(Cc1cnc2nc(N)nc(N)c2n1)c1ccc(C(=O)N[C@@H](CCC(=O)O)C(=O)O)cc1 [Methotrexate]  drug sensitivity score           0
2  CC[C@H](CO)Nc1nc(NCc2ccccc2)c2ncn(C(C)C)c2n1 [Seliciclib]  drug sensitivity score           0
3             CN(C)C(=N)NC(=N)N [Metformin]  drug sensitivity score           0
4  Cc1cc(Nc2nc(N[C@@H](C)c3ncc(F)cn3)ncc2Cl)[nH]n1 [AZD1480]  drug sensitivity score           0
5  O=[N+]([O-])c1ccc2c(c1)S(=O)(=O)C=C2 [Stattic]  drug sensitivity score        8.62
6  CC(O)(CS(=O)(=O)c1ccc(F)cc1)C(=O)Nc1ccc(C#N)c(C(F)(F)F)c1 (stereo unspecified) [Bicalutamide]  drug sensitivity score           0

====

System: HDQ-P1
Assay name: normalised viability (% of control), CellTiter-Blue; higher = more viable cells (about 100 = DMSO control)
Condition notes: 3 nM; incubation time: 72 h
Result type: normalised viability (%)

Molecule	Data value
C=CCN(/C=C1/C(=O)O[C@H](COC)[C@@]2(C)C1=C(O)C(=O)C1=C2[C@H](OC(C)=O)C[C@]2(C)C(=O)CC[C@@H]12)CC=C [PX-866]	113
CC(C)C[C@H](NC(=O)[C@@H](COC(C)(C)C)NC(=O)[C@H](Cc1ccc(O)cc1)NC(=O)[C@H](CO)NC(=O)[C@H](Cc1c[nH]c2ccccc12)NC(=O)[C@H](Cc1cnc[nH]1)NC(=O)[C@@H]1CCC(=O)N1)C(=O)N[C@@H](CCCNC(=N)N)C(=O)N1CCC[C@H]1C(=O)NNC(N)=O [Goserelin]	104
CC(O)(CS(=O)(=O)c1ccc(F)cc1)C(=O)Nc1ccc(C#N)c(C(F)(F)F)c1 (configuration not stated) [Bicalutamide]	86.9
CN(Cc1cnc2nc(N)nc(N)c2n1)c1ccc(C(=O)N[C@@H](CCC(=O)O)C(=O)O)cc1 [Methotrexate]	108
COc1c2occc2cc2ccc(=O)oc12 [Methoxsalen]	115
CC(C)(C)NC(=O)[C@H]1CC[C@H]2[C@@H]3CC[C@H]4NC(=O)C=C[C@]4(C)[C@H]3CC[C@]12C [Finasteride]	121
COc1ccc(S(=O)(=O)Nc2cccnc2Nc2ccc(O)cc2)cc1 [ABT-751]	91.2

====

Each record here notes measured drug sensitivity score.
System: CAL-85-1
Assay name: drug sensitivity score (DSS), CellTox Green (DSS (AUC-based score)); higher = stronger drug effect (viability inhibition or cytotoxicity); extreme values may be limits of the assay
Condition notes: incubation time: 72 h
Result type: drug sensitivity score

> print(dat)
                                   compound  test.target             result.type  data.value
1  CCNC(=O)CCC/C=C\C[C@@H]1[C@@H](/C=C/[C@@H](O)CCc2ccccc2)[C@H](O)C[C@@H]1O [Bimatoprost]     CAL-85-1  drug sensitivity score           0
2  CCN(CC)CCCC(C)Nc1ccnc2cc(Cl)ccc12 (centres undefined) [Chloroquine]     CAL-85-1  drug sensitivity score        7.92
3  C=CCN(/C=C1/C(=O)O[C@H](COC)[C@@]2(C)C1=C(O)C(=O)C1=C2[C@H](OC(C)=O)C[C@]2(C)C(=O)CC[C@@H]12)CC=C [Sonolisib]     CAL-85-1  drug sensitivity score        2.28
4  CC[C@H](CO)Nc1nc(NCc2ccccc2)c2ncn(C(C)C)c2n1 [Seliciclib]     CAL-85-1  drug sensitivity score           0

====

Each record here notes measured normalised response.
System: DU-4475
Assay name: normalised response (% of control), CellTiter-Glo; higher = more viable cells (100 = DMSO, 0 = benzethonium chloride kill control)
Condition notes: incubation time: 72 h
Result type: normalised response (%)

> print(dat)
                                   compound  units.of.measure  data.value
1  Nc1ccn([C@@H]2O[C@H](CO)[C@@H](O)C2(F)F)c(=O)n1 [Gemcitabine] (10 nM)                 %        96.8
2  Cc1nc(C(=O)NCC(=O)O)c(O)c2ccc(Oc3ccccc3)cc12 [FG-4592] (100 nM)                 %         103
3  CC(=O)[C@]1(O)Cc2c(O)c3c(c(O)c2[C@@H](O[C@H]2C[C@H](N)[C@H](O)[C@H](C)O2)C1)C(=O)c1ccccc1C3=O [Idarubicin] (10 nM)                 %          96
4  CCNC(=O)c1noc(-c2cc(C(C)C)c(O)cc2O)c1-c1ccc(CN2CCOCC2)cc1 [NVP-AUY922] (10 nM)                 %         101
5  CCN(CC)CCCC(C)Nc1ccnc2cc(Cl)ccc12 (configuration not stated) [Chloroquine] (1000 nM)                 %          93
6  CC(O)(CS(=O)(=O)c1ccc(F)cc1)C(=O)Nc1ccc(C#N)c(C(F)(F)F)c1 (configuration not stated) [Bicalutamide] (100 nM)                 %         105
7  CC[C@H](CO)Nc1nc(NCc2ccccc2)c2ncn(C(C)C)c2n1 [Seliciclib] (100 nM)                 %         104

====

Tested on: BT-474
Assay name: normalised response (% of control), CellTiter-Glo; higher = more viable cells (100 = DMSO, 0 = benzethonium chloride kill control)
Condition notes: incubation time: 72 h
Each record here notes measured normalised response.
Result type: normalised response (%)

> print(dat)
                                   compound          result.type  data.value
1  CCn1c(C(=O)N(C2CC2)C2CC2)cc2c3c(ncn3C)c(Nc3cc(C)n(C)n3)nc21 (1 nM)  normalised response        92.6
2  Cc1cc(Nc2nc(N[C@@H](C)c3ncc(F)cn3)ncc2Cl)[nH]n1 [AZD1480] (1 nM)  normalised response         102
3  CC1(COc2ccc3c(c2)ncn3-c2ccc3cccc(N4CCC(N)CC4)c3n2)COC1 [Crenolanib] (1 nM)  normalised response         102
4  CCNC(=O)c1noc(-c2cc(C(C)C)c(O)cc2O)c1-c1ccc(CN2CCOCC2)cc1 [NVP-AUY922] (100 nM)  normalised response          25

====

Test system: MDA-MB-453
Assay name: normalised viability (% of control), CellTiter-Blue; higher = more viable cells (about 100 = DMSO control)
Condition notes: 100 nM; incubation time: 72 h
Result type: normalised viability (%)

> print(dat)
                                  structure  test.target           result.type  data.value
1                 COc1c2occc2cc2ccc(=O)oc12   MDA-MB-453  normalised viability         112
2  C=CCn1c(=O)c2cnc(Nc3ccc(N4CCN(C)CC4)cc3)nc2n1-c1cccc(C(C)(C)O)n1   MDA-MB-453  normalised viability        88.7
3  CC[C@H](CO)Nc1nc(NCc2ccccc2)c2ncn(C(C)C)c2n1   MDA-MB-453  normalised viability         109
4  COc1cc(Nc2c(C#N)cnc3cc(OCCCN4CCN(C)CC4)c(OC)cc23)c(Cl)cc1Cl   MDA-MB-453  normalised viability         105
5  CNC(=O)c1ccccc1Sc1ccc2c(/C=C/c3ccccn3)n[nH]c2c1   MDA-MB-453  normalised viability        97.2

====

System: MDA-MB-231
Assay name: normalised response (% of control), CellTox Green; higher = less cell death (100 = DMSO, 0 = benzethonium chloride kill control)
Condition notes: incubation time: 72 h
Result type: normalised response (%)

> print(dat)
                                   molecule  test.target  units.of.measure  data.value
1  CCn1c(C(=O)N(C2CC2)C2CC2)cc2c3c(ncn3C)c(Nc3cc(C)n(C)n3)nc21 (1000 nM)   MDA-MB-231                 %         102
2  O=C(CCCCCCC(=O)Nc1ccccc1)NO [Vorinostat] (10000 nM)   MDA-MB-231                 %       -55.1
3  CNC(=O)c1ccccc1Sc1ccc2c(/C=C/c3ccccn3)n[nH]c2c1 [Axitinib] (1000 nM)   MDA-MB-231                 %         121
4  CCNC(=O)c1noc(-c2cc(C(C)C)c(O)cc2O)c1-c1ccc(CN2CCOCC2)cc1 [NVP-AUY922] (100 nM)   MDA-MB-231                 %        46.7
